The values you see were collected from patent US20250353864A1.

Test System: EGFR WT (Homo sapiens (Human), UniProt P00533)
Sequence (P00533 25-1210): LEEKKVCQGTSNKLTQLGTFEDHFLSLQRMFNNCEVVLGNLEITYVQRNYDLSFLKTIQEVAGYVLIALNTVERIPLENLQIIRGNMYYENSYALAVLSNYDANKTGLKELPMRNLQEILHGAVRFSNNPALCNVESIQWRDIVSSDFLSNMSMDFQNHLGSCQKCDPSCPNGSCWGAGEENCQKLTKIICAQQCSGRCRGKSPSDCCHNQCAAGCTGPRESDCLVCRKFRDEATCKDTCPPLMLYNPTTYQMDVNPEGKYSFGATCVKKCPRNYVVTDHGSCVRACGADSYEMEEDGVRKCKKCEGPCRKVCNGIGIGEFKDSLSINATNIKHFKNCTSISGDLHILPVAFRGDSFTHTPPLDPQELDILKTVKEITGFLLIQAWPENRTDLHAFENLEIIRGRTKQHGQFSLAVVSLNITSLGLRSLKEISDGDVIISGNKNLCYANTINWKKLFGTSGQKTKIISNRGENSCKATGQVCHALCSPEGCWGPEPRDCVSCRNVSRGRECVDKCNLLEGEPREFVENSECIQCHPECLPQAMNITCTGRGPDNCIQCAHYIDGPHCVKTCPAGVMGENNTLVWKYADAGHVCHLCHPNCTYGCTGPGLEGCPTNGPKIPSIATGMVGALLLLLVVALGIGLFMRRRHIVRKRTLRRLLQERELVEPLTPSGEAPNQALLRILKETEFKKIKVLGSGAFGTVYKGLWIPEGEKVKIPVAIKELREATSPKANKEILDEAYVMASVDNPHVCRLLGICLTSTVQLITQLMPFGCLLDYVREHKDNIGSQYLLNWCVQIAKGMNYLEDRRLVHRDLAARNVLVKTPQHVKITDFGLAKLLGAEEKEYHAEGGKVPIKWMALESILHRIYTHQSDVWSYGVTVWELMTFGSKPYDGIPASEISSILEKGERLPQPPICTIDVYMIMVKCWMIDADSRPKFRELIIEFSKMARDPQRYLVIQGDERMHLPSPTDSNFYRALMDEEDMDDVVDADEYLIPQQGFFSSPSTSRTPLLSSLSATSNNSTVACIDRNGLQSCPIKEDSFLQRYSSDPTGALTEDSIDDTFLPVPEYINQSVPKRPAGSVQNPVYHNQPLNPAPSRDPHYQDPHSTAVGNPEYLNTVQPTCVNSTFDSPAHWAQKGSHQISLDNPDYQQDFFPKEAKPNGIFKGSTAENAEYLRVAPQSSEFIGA
Threshold 10 nM. IC50 below it: label 1. IC50 at it or above: label 0.

# Molecule, Answer Label
data = [
    ("CCOc1nn(C)c2c1/C=C/c1n[nH]c3ccc(cc13)-c1cnn(C)c1O[C@@H]1CCCN(C2)C1", "label 0"),
    ("CCOc1nn(C)c2c1/C=C/c1n[nH]c3cc(F)c(cc13)-c1cnn(C)c1OC1CCCN(C2)C1 (stereo in doubt)", "label 0"),
    ("CCOc1nn(CCO)c2c1/C=C/c1n[nH]c3cc(F)c(cc13)-c1cnn(C)c1O[C@@H]1CCCN(C2)C1", "label 0"),
    ("CC(C)Oc1nn(CCO)c2c1/C=C/c1n[nH]c3cc(F)c(cc13)-c1cnn(C)c1O[C@@H](C)CN(C)C2", "label 0"),
    ("Cc1nn(C[C@H](C)O)c2c1/C=C/c1n[nH]c3ccc(cc13)-c1cnn(C)c1O[C@@H](C)CN(C)C2", "label 0"),
    ("Cc1nn(CCO)c2c1/C=C/c1n[nH]c3ccc(cc13)-c1cnn(C)c1OC(C1CCC1)CN(C)C2 (centres unmarked)", "label 0"),
    ("Cc1nn(C)c2c1/C=C/c1n[nH]c3ccc(cc13)-c1cnn(C)c1CN(C)CCO2", "label 0"),
    ("CN1CCN(Cc2ccc3c(c2)O[C@@H]2CCN(CCOc4c(cnn4C)-c4ccc5[nH]nc(c5c4)/C=C/3)C2=O)CC1", "label 0"),
    ("Cc1c2c(nn1C)CN(C)C[C@H](C)Oc1c(cnn1C)-c1ccc3[nH]nc(c3c1)/C=C/2", "label 0"),
    ("Cc1nn([C@H]2CCN(C)C[C@@H]2O)c2c1/C=C/c1n[nH]c3ccc(cc13)-c1cnn(C)c1OCCCO2 (racemic)", "label 0"),
    ("CCOc1nn(CCO)c2c1/C=C/c1n[nH]c3ccc(cc13)-c1cnn(C)c1O[C@@H](C)CN(CC)C2", "label 1"),
    ("Cc1nn(CCO)c2c1/C=C/c1n[nH]c3ccc(cc13)-c1c(C)nn(C)c1O[C@@H](C)CN(C)C2", "label 0"),
    ("C[C@H]1CN(C)Cc2c(c(OCC#N)nn2CCO)/C=C/c2n[nH]c3ccc(cc23)-c2cnn(C)c2O1", "label 1"),
    ("CCOc1nn(CCO)c2c1/C=C/c1n[nH]c3ccc(cc13)-c1c(C)nn(C)c1O[C@@H](C)CN(C(C)C)C2", "label 1"),
]

---

Test System: EGFR Δ746-750 mutant (Homo sapiens (Human), UniProt P00533, DEL746-750)
Sequence (P00533 other isoform, or with tags, fused parts or gaps del 1-668/del 746-750 limits assumed): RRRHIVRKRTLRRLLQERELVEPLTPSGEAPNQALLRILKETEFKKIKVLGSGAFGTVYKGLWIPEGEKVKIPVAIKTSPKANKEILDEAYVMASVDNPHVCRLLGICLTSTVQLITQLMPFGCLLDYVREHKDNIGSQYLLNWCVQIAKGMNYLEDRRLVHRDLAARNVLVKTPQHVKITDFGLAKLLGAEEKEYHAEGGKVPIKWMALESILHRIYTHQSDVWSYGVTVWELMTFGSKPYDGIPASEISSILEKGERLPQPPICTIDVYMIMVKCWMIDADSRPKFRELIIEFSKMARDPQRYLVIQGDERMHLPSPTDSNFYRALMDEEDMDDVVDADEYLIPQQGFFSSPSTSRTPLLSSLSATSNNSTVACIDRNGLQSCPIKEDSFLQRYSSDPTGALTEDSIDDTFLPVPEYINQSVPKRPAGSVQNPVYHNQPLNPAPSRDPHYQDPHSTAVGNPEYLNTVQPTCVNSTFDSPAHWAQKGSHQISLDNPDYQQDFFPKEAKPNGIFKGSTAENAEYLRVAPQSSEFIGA
Test Protocol: HotSpot radiometric kinase assay, EGFR Δ746-750 mutant
Run Conditions: 10 μM ATP
pIC50: −log10 of the molar value.
The following compounds are shown together with reported pIC50 values.

# Compound, Operator, pIC50
rows = [
    ("CCOc1nn(CCO)c2c1/C=C/c1n[nH]c3ccc(cc13)-c1cnn(C)c1OC[C@H](CC)N(C)C2", "=", 7.40),
    ("Cc1nn(C)c2c1-c1ccc3[nH]nc(c3c1)/C=C/c1c(OC(C)C)nn(CCO)c1CN(C(C)C)C[C@@H](C)O2", "=", 7.35),
    ("CCOc1nn(C)c2c1/C=C/c1n[nH]c3cc(F)c(cc13)-c1cnn(C)c1O[C@@H](C)CN(CC)C2", "=", 9.12),
    ("CC(C)Oc1nn(CCO)c2c1/C=C/c1n[nH]c3ccc(cc13)-c1cnn(C)c1O[C@H](C)[C@H]1CCCN1C2", "=", 9.12),
    ("CCc1nn(C)c2c1/C=C/c1n[nH]c3ccc(cc13)-c1cnn(C)c1OCC[C@@H](C)O2", "=", 6.86),
    ("Cc1nn([C@H]2C[C@@H](NCCN(C)C)C2)c2c1/C=C/c1n[nH]c3ccc(cc13)-c1cnn(C)c1OCCCO2", "=", 7.51),
    ("Cc1nn([C@H]2C[C@@H](N(C)CCN(C)C)C2)c2c1/C=C/c1n[nH]c3ccc(cc13)-c1cnn(C)c1OCCCO2", "=", 6.98),
    ("Cc1nn(CCO)c2c1/C=C/c1n[nH]c3ccc(cc13)-c1cnn(C)c1OCCCO2", "=", 8.42),
    ("CCOc1nn(CCO)c2c1/C=C/c1n[nH]c3ccc(cc13)-c1cnn(C)c1O[C@H](C)CNC2", "=", 7.21),
    ("CCc1nn(CCO)c2c1/C=C/c1n[nH]c3ccc(cc13)-c1cnn(C)c1O[C@@H](C)CN(C)C2", "=", 9.24),
    ("C[C@@H](C#N)Oc1nn(CCO)c2c1/C=C/c1n[nH]c3cc(F)c(cc13)-c1cnn(C)c1O[C@@H](C)CN(C)C2", "=", 8.28),
    ("CC(C)Oc1nn(CCO)c2c1/C=C/c1n[nH]c3ccc(cc13)-c1cnn(C)c1O[C@@H](C#N)CN(C)C2", "=", 6.79),
    ("CC(C)Oc1nn([C@@H](C)CO)c2c1/C=C/c1n[nH]c3ccc(cc13)-c1cnn(C)c1O[C@H](C)CN(C(C)C)C2", "<", 6.00),
    ("Cc1c2c(nn1CCO)OCCCOc1c(cnn1C)-c1ccc3[nH]nc(c3c1)/C=C/2", "=", 6.12),
    ("CCc1nn(C)c2c1/C=C/c1n[nH]c3ccc(cc13)-c1cnn(C)c1O[C@@H](C)COC2", "=", 6.66),
    ("CCc1nn(C)c2c1/C=C/c1n[nH]c3ccc(cc13)-c1cnn(C)c1OCCCO2", "=", 7.13),
    ("CCOc1nn(C)c2c1/C=C/c1n[nH]c3ccc(cc13)-c1cnn(C)c1O[C@@H]1CCN(C2)C1", "=", 8.29),
    ("Cc1nn(C)c2c1/C=C/c1n[nH]c3ccc(cc13)-c1cnn(C)c1OCCN(C)C2", "=", 7.13),
    ("CCc1nn(C)c2c1/C=C/c1n[nH]c3ccc(cc13)-c1cnn(C)c1OCC[C@H](C)O2", "=", 6.91),
    ("Cn1ncc2c1OCCN1CC[C@@H](Oc3ccc(F)cc3/C=C/c3n[nH]c4ccc-2cc34)C1=O", "=", 7.40),
    ("Cc1nn([C@H]2CCOC[C@@H]2O)c2c1/C=C/c1n[nH]c3ccc(cc13)-c1cnn(C)c1OCCCO2 (racemic)", "<", 6.00),
    ("Cc1nn(CCO)c2c1/C=C/c1n[nH]c3cc(Cl)c(cc13)-c1cnn(C)c1O[C@@H](C)CN(C)C2", "=", 7.69),
    ("Cc1nn(C)c2c1/C=C/c1n[nH]c3ccc(cc13)-c1cnn(C)c1O[C@@H]1CCN(C2)C1", "=", 7.62),
    ("Cc1nn(C)c2c1/C=C/c1n[nH]c3ccc(cc13)-c1cnn(C)c1O[C@@H](C)CN(C1CC1)C2", "=", 7.70),
    ("CCOc1nn(CCO)c2c1/C=C/c1n[nH]c3ccc(cc13)-c1cnn(C)c1O[C@@H]1CCCN(C2)C1", "=", 8.18),
    ("Cn1ncc2c1OCCN1CC[C@@H](Oc3ccccc3/C=C/c3n[nH]c4ccc-2cc34)C1=O", "=", 7.49),
    ("Cc1c2c(nn1[C@H]1CCNC[C@@H]1O)OCCCOc1c(cnn1C)-c1ccc3[nH]nc(c3c1)/C=C/2 (racemic)", "=", 7.53),
    ("COC(C)(C)c1ccc2c(c1)O[C@@H]1CCN(CCOc3c(cnn3C)-c3ccc4[nH]nc(c4c3)/C=C/2)C1=O", "=", 7.89),
    ("CCOc1nn(CCO)c2c1/C=C/c1n[nH]c3cc(F)c(cc13)-c1cnn(C)c1O[C@@H]1CCCN(C2)C1", "=", 8.04),
]

---

Test System: EGFR (D770_N771insNPG) (Homo sapiens (Human), UniProt P00533, INS770NPG)
Sequence (P00533 other isoform, or with tags, fused parts or gaps del 1-668/ins NPG behind 770 limits assumed): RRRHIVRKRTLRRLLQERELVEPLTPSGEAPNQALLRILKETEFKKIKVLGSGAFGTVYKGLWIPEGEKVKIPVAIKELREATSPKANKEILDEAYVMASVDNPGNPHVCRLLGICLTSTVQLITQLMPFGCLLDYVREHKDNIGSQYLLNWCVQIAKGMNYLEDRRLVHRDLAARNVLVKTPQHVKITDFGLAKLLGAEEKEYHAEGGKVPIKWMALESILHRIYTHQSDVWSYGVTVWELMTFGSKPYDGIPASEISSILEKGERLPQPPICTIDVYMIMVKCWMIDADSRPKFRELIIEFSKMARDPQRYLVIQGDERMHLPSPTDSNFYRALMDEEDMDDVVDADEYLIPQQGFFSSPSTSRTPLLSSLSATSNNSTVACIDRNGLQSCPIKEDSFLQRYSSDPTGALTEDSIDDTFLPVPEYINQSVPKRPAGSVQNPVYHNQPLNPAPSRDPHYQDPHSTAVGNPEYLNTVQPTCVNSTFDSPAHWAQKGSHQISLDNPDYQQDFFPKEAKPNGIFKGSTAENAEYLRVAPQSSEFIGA
Test Protocol: HotSpot radiometric kinase assay, EGFR (D770_N771insNPG)
Run Conditions: 10 μM ATP, read-out: EGFR (Δ770_N771insNPG) IC50
pIC50: −log10 of the molar value.
Readout Name: pIC50

# Compound, Readout Name, Operator, Measurement
records = [
    ("Cc1c2c(nn1C)CN(C)C[C@H](C)Oc1c(cnn1C)-c1ccc3[nH]nc(c3c1)/C=C/2", "pIC50", "=", 6.65),
    ("CCc1nn(C)c2c1/C=C/c1n[nH]c3ccc(cc13)-c1cnn(C)c1OCC[C@H](C)O2", "pIC50", "=", 6.51),
    ("Cc1nn(C)c2c1/C=C/c1n[nH]c3ccc(cc13)-c1cnn(C)c1CN(C)[C@@H](C)CO2", "pIC50", "=", 6.95),
    ("CCc1nn(CCO)c2c1/C=C/c1n[nH]c3ccc(cc13)-c1cnn(C)c1O[C@@H](C)CN(C)C2", "pIC50", "=", 8.19),
    ("CCOc1nn([C@@H](C)CO)c2c1/C=C/c1n[nH]c3cc(F)c(cc13)-c1cnn(C)c1O[C@H](C)CN(C(C)C)C2", "pIC50", "=", 7.41),
    ("CC(C)Oc1nn(CCO)c2c1/C=C/c1n[nH]c3ccc(cc13)-c1cnn(C)c1O[C@H](C)CN(C(C)C)C2", "pIC50", "=", 7.11),
    ("CCOc1nn([C@@H](C)CO)c2c1/C=C/c1n[nH]c3ccc(cc13)-c1cnn(C)c1O[C@@H](C)CN(C)C2", "pIC50", "=", 8.20),
    ("CCOc1nn(CCO)c2c1/C=C/c1n[nH]c3cc(F)c(cc13)-c1cnn(C)c1O[C@@H]1CCCN(C2)C1", "pIC50", "=", 6.99),
    ("Cc1nn([C@H]2COCC[C@@H]2O)c2c1/C=C/c1n[nH]c3ccc(cc13)-c1cnn(C)c1OCCCO2 (racemic)", "pIC50", "<", 6.00),
    ("Cc1nn(C)c2c1/C=C/c1n[nH]c3ccc(cc13)-c1cnn(C)c1OCCCO2", "pIC50", "=", 6.42),
    ("CC(C)Oc1nn(CCO)c2c1/C=C/c1n[nH]c3cc(F)c(cc13)-c1cnn(C)c1O[C@@H]1CCCN(C2)C1", "pIC50", "<", 6.00),
    ("CCOc1nn(CC(C)(C)O)c2c1/C=C/c1n[nH]c3ccc(cc13)-c1cnn(C)c1O[C@@H](C)CN(CC)C2", "pIC50", "=", 7.24),
    ("CN1CCN(Cc2ccc3c(c2)O[C@@H]2CCN(CCOc4c(cnn4C)-c4ccc5[nH]nc(c5c4)/C=C/3)C2=O)CC1", "pIC50", "=", 8.20),
    ("Cc1nn([C@H]2CC[C@@H]2O)c2c1/C=C/c1n[nH]c3ccc(cc13)-c1cnn(C)c1OCCCO2 (racemic)", "pIC50", "=", 6.04),
    ("Cc1nn(CCN2CCCC2)c2c1/C=C/c1n[nH]c3ccc(cc13)-c1cnn(C)c1C(C)OCCO2 (stereo not shown)", "pIC50", "=", 6.60),
    ("CCN1Cc2c(c(C)nn2CCO)/C=C/c2n[nH]c3ccc(cc23)-c2cnn(C)c2O[C@@H](C)C1", "pIC50", "=", 8.79),
    ("CCOc1nn(CCO)c2c1/C=C/c1n[nH]c3ccc(cc13)-c1c(C)nn(C)c1OC[C@H](C)N(C1CC1)C2", "pIC50", "=", 6.86),
    ("CCOc1nn(C)c2c1/C=C/c1n[nH]c3ccc(cc13)-c1cnn(C)c1O[C@@H](C)CN(C(C)C)C2", "pIC50", "=", 7.19),
    ("CCN1Cc2c(c(OC(C)C)nn2CC(N)=O)/C=C/c2n[nH]c3ccc(cc23)-c2cnn(C)c2O[C@@H](C)C1", "pIC50", "=", 8.86),
    ("CC(C)Oc1nn(CCO)c2c1/C=C/c1n[nH]c3ccc(cc13)-c1cnn(C)c1O[C@@H](C)CN(C)C2", "pIC50", "=", 8.04),
    ("Cc1c2c(nn1CCO)OCCCOc1c(cnn1C)-c1ccc3[nH]nc(c3c1)/C=C/2", "pIC50", "=", 5.75),
    ("Cc1c2c(nn1C[C@H](C)O)CN(C)C[C@H](C)Oc1c(cnn1C)-c1ccc3[nH]nc(c3c1)/C=C/2", "pIC50", "=", 6.85),
    ("CC(C)Oc1nn(CCO)c2c1/C=C/c1n[nH]c3ccc(cc13)-c1cnn(C)c1O[C@@H](C#N)CN(C)C2", "pIC50", "=", 6.08),
    ("Cc1nn(CCO)c2c1/C=C/c1n[nH]c3cc(F)c(cc13)-c1cnn(C)c1O[C@@H](C)CN(C)C2", "pIC50", "=", 7.73),
    ("CCOc1nn(C)c2c1/C=C/c1n[nH]c3ccc(cc13)-c1cnn(C)c1OC1CN(C2)C1", "pIC50", "=", 6.66),
    ("CCOc1nn(CCO)c2c1/C=C/c1n[nH]c3ccc(cc13)-c1c(C)nn(C)c1O[C@H](C)CN(C1CC1)C2", "pIC50", "=", 7.70),
    ("CCOc1nn(CCO)c2c1/C=C/c1n[nH]c3ccc(cc13)-c1cnn(C)c1O[C@@H](C)CN(CC)C2", "pIC50", "=", 8.81),
    ("CCOc1nn(CCO)c2c1/C=C/c1n[nH]c3ccc(cc13)-c1cnn(C)c1OC1CCCN(C2)C1C (stereo not shown)", "pIC50", "=", 6.52),
]
